Cited source: patent US10889584B2

# target-under-test: α-synuclein peptide fragments (Peptide 4F, CTGFVKKDQLGK) (Homo sapiens, UniProt P37840)
# assay-details: In-vitro fluorescence polarization assay with alpha-synuclein peptide fragment (4F)
# experimental-parameters: peptide 4F 100 nM, 120 min at room temperature, compound 33.3 to 0.015 microM, 50 mM HEPES pH 7.4, 50 mM NaCl, read-out: IC50 (inhibition of self-aggregation of α-synuclein peptide fragment 4F)
measurement-type: pIC50
One number for each entry, as −log10 of the molar value.

The examples below pair each entry with its known result.
>  <compound>
CCCCC(Cc1c[nH]c2ccccc12)NC(=O)c1cnc(N2CCn3nc(C)nc3C2)s1 (stereo not shown)

>  <observed-result>
5.80

$$$$
>  <compound>
CCCCC(Cc1c[nH]c2ccccc12)NC(=O)c1cnc(N2CCc3oncc3C2)s1 (stereo not shown)

>  <observed-result>
5.89

$$$$
>  <compound>
CCCCC(Cc1c[nH]c2ccccc12)NC(=O)c1cnc(N2CCn3cnnc3C2)s1 (stereo not shown)

>  <observed-result>
5.64

$$$$
>  <compound>
CCCCC(Cc1c[nH]c2ccccc12)NC(=O)c1cnc(N2CCc3[nH]ncc3C2)s1 (stereo not shown)

>  <observed-result>
5.66

$$$$
>  <compound>
CCCCC(Cc1c[nH]c2ccccc12)NC(=O)c1cnc(N2CCn3c(cc(C(F)(F)F)cc3=O)C2)s1 (stereo not shown)

>  <observed-result>
5.85

$$$$

Answer for every listed entry: what is its pIC50? The entries follow.
1. CCCCC(Cc1c[nH]c2ccccc12)NC(=O)c1cnc(N2Cc3cnn(C)c3C2)s1 (stereo not shown)
2. CCCCC(Cc1c[nH]c2ccccc12)NC(=O)c1cnc(N2CCc3onc(C)c3C2)s1 (stereo not shown)
3. CCCCC(Cc1c[nH]c2ccccc12)NC(=O)c1cnc(N2CCc3c(cnn3C)C2)s1 (stereo not shown)
4. CCCCC(Cc1c[nH]c2ccccc12)NC(=O)c1cnc(N2CCn3nccc3C2)s1 (stereo not shown)
5. CCCCC(Cc1c[nH]c2ccccc12)NC(=O)c1cnc(N2CCn3c(C)nnc3C2)s1 (stereo not shown)

1: 5.68; 2: 6.08; 3: 6.00; 4: 5.89; 5: 5.77

Answer for every listed entry: what is its pIC50? The entries follow.
1. CCCCC(Cc1c[nH]c2ccccc12)NC(=O)c1cnc(N2CCc3onc(C(F)(F)F)c3C2)s1 (stereo not shown)
2. CCCCC(Cc1c[nH]c2ccccc12)NC(=O)c1cnc(N2CCn3ccnc3C2)s1 (stereo not shown)
3. CCCCC(Cc1c[nH]c2ccccc12)NC(=O)c1cnc(N2CCn3cncc3C2)s1 (stereo not shown)

6.10
5.80
5.82
